Each recorded value in this set is attributed to a melting point compilation (Tetko et al.; mined from patent text by program, amines drawn as free bases though some values may be those of a salt).

QUANTITY MEASURED: melting point

In [3]: df
Out[3]:
                                    compound  measured_result
 0  CSCc1cc([N+](=O)[O-])ccc1N1C(=O)c2ccc(Cl)cc2C1=O    112 to 115 °C
 1  CNC(=O)C(Cc1ccc(OC)cc1)NC(=O)CC(S)C(CC(C)C)C(N)=O (stereo not given)    221 to 225 °C
 2  O=C1NCCN1c1ccc(S(=O)(=O)Nc2ccc3[nH]ccc3c2)cc1    239 to 241 °C
 3  COc1cc(F)c(-c2nn(C)c(C(F)(F)F)c2Cl)cc1[N+](=O)[O-]           116 °C
 4  CCOC(=O)/C=C/c1cn(Cc2ccccc2)nc1OCc1ccccc1      88 to 89 °C
 5  CCN1CC2CCCC2C1CNC(=O)c1cc(Cl)c(N)cc1OC (stereo not given)    128 to 129 °C
 6  Cc1cc(C(=O)N2Cc3ccc(C(=O)N(C)C[C@@H]4OC(=O)O[C@H]4[C@H](O)[C@H]4COC(=O)O4)n3Cc3ccccc32)ccc1C1=CCCCC1    162 to 168 °C
 7  CCOc1ccc([N+](=O)[O-])c(Nc2ccc(OC)cc2)c1           109 °C
 8  CC(=O)OC1CSC(Oc2cccnc2-c2ccc(C)o2)C(OC(C)=O)C1OC(C)=O (stereo not given)           128 °C
 9     CN1CCN(c2ccc3nc(N)c(C#N)c(Cl)c3c2)CC1           189 °C
10           Nc1nc2c(ncn2Cc2ccoc2)c(=O)[nH]1    308 to 310 °C
11  CCCc1c(OCCCc2ccc(O)c(O)c2)ccc(C(=O)O)c1O    194 to 195 °C
12  CN1CCC(=O)C(C(c2ccc(F)cc2)c2ccc(F)cc2)C1 (stereo not given)    127 to 129 °C
13        CCn1nc2c(N)nc3ccccc3c2c1CCc1ccccc1    179 to 181 °C
14  O=C(O)CCn1nc(-c2c(-c3ccccc3)nn3ccccc23)ccc1=O           156 °C
15  CCCCCc1cc(O)c2c(c1)OC(C)(C)[C@@H]1CCC(=O)C[C@H]21 (relative stereo)    120 to 134 °C
16  Cc1cccc(-c2n[nH]cc2-c2ccnc(-c3ccc(C(=O)NC4CCOCC4)cc3)c2)n1           148 °C
17  COc1nc(C)cnc1NS(=O)(=O)c1cccnc1-c1ccc(COC(C)C)cc1    123 to 124 °C
18  COc1ncc(C2OC(CO)C(O)C2O)c(OC)n1 (stereo not given)    138 to 139 °C
19  c1ccc2c(c1)[nH]c1cccc(OCC3CO3)c12 (stereo not given)           133 °C

* * *

Catalogue of melting point values
QUANTITY MEASURED: melting point

>>> print(df.to_string())
                                    compound  measured_result
 0  CC(C)CC1(CCCCCl)C(=O)Nc2ccccc21 (stereo unspecified)    124 to 125 °C
 1  O=C1COc2ccc(CCCCCc3ccc4c(c3)NC(=O)CO4)cc2N1    189 to 190 °C
 2  COc1cc(NC(N)=O)c2c(c1)OC(C)C2 (stereo unspecified)           204 °C
 3  O=C(O)CCCCN1CCN2c3ccccc3Sc3ccccc3C2C1 (stereo unspecified)    226 to 230 °C
 4  O=C(CC12CC3CC(CC(C3)C1)C2)Nc1ccc2[nH]ccc2c1    184 to 185 °C
 5  CCOC(=O)c1cc2cc(OC(F)(F)F)cc(N(C)S(=O)(=O)c3cccs3)c2[nH]1    149 to 150 °C
 6  O=C(Nc1ccc(F)c(C(F)(F)F)c1)N1COc2cc(Oc3cc(Cl)ncn3)ccc21    188 to 191 °C
 7  CC1CC(=O)NN=C1c1ccc(-n2ccc(C=O)c2)cc1 (stereo unspecified)    191 to 192 °C
 8       NCCc1c2ccccc2n2c1[nH]c(=O)c1ccccc12         > 300 °C
 9             NS(=O)(=O)c1cc(C(=O)CBr)ccc1F           125 °C
10  Cn1c(COc2ccc(CC3SC(=O)NC3=O)cc2)nc2cccnc21 (stereo unspecified)    223 to 225 °C
11  COC(=O)C1=C(C)NC2=C(C(=O)CN(CC(O)COc3cccc(C)c3C)C2)C1c1c(F)ccc(Cl)c1Cl (stereo unspecified)    190 to 193 °C
12   O=C(O)Cc1ccc(Cc2nc3c(F)c(F)cc(F)c3s2)s1    132 to 133 °C
13  O=C(O)C1CCc2c(-c3ccc(Cl)cc3)noc2C1 (stereo unspecified)    227 to 228 °C
14  CC(=O)Nc1ccc(-c2nn(C(C)=O)c3c2Cc2ccccc2-3)cc1    245 to 246 °C
15  CCCCNC(=O)NCCCn1c(CCCC)nc2c(N)nc3ccccc3c21           186 °C
16               N=C(NO)c1ccc2cc(O)c(O)cc2c1    238 to 243 °C
17  O=C(O)CCCCCNC(=O)S[C@@H]1CC(=O)N(Cc2ccc(Oc3ccc(F)cc3)nc2)C1    129 to 130 °C
18  COc1ccc(S(=O)(=O)C2(CCCCC#Cc3ccc(Cl)cc3)SC(=O)NC2=O)cc1 (stereo unspecified)    145 to 148 °C
19  CCCc1c(OCC(O)CSc2ccc(C(=O)CCC(=O)O)cc2F)ccc(C(C)=O)c1O (stereo unspecified)    106 to 109 °C
20    COc1cc(Nc2nccc(Sc3ccccc3)n2)cc(OC)c1OC           110 °C
21  CCCc1c(C(=O)NC2CC2)nnn1-c1ccc(C(=O)NCC)cc1O           203 °C
22                Cn1nc(-c2ncc(Cl)cc2F)cc1Br    110 to 111 °C
23  CC(=O)Nc1ccc([N+](=O)[O-])c(N2CCN(C(C)=O)CC2)n1    189 to 193 °C
24  CCC1(O)CC(=O)OCc2c1ccn(Cc1cc3cc4c(cc3nc1I)OCCO4)c2=O (stereo unspecified)    165 to 167 °C
25  NC(=NCCN(Cc1ccc(F)cc1)c1ccccn1)NCCCc1c[nH]cn1      60 to 63 °C
26        CCOCCNC(=O)c1c(Cl)cccc1[Si](C)(C)C      71 to 73 °C
27    CCn1nc2c(N)nc3cc(OC)ccc3c2c1CCc1ccccc1    162 to 163 °C
28                   N#Cc1cc(Oc2ccccc2)ccc1O    112 to 114 °C
29  C#CCNC1CCc2ccc([N+](=O)[O-])cc21 (stereo unspecified)      37 to 39 °C
30  Cc1ccc(COc2cc(C(O)C#Cc3ccc(C(=O)O)cc3)cc3c2C(C)(C)CCC3(C)C)cc1 (stereo unspecified)           219 °C
31  Clc1ccc([C@@]2(Cn3ccnc3)OC[C@H](COc3ccc4c(c3)CCN(CCCc3ccc(-c5ccccc5)cc3)C4)O2)c(Cl)c1 (racemic)    125 to 127 °C
32         CN1Cc2c(C(=O)NN)ncn2-c2ccccc2C1=O    312 to 313 °C
33                   O=C(O)c1cc(Cl)nn2nnnc12           225 °C
34  CC(O)(CF)C(=O)Nc1ccc(C(=O)c2ccccc2)cc1 (stereo unspecified)    146 to 148 °C
35  CCCCCCCCCCCC(CC(O)C(C(=O)OC(C)(C)C)S(=O)c1ccc(C)cc1)OC1CCCCO1 (stereo unspecified)      97 to 98 °C
36  CCCCCN(CCCCC)C(=O)[C@H]1Cc2c([nH]c3ccccc23)CN1    157 to 158 °C
37  COc1ccc(N2CCc3c(C)nc4c(OC)cccc4c32)c(C)c1    163 to 167 °C
38  NC(=O)C(c1ccccc1)N1C(=O)c2ccccc2C1=O (stereo unspecified)           218 °C
39  CC12Cc3cnn(-c4ccc(F)cc4)c3C=C1CCC1C2=CCCC1c1ccccn1 (stereo unspecified)    154 to 156 °C
40  CC(C)(C)N1C(=O)C(=O)N(c2ccc(C#N)cc2)C1=S    200 to 201 °C
